PROCEDURE SUMMARY: endothelial E-selectin upregulation by compounds – imaging, HUVEC, cherry-picked samples, dose response (AID 977605);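 also: signal is the share of imaged cells scored positive for E-selectin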
CONDITION NOTES: HUVEC E-selectin immunostaining, at 19.5 µM (top of the series), percent of TNF-alpha response over vehicle
Quick reference for activation among some compounds
MEASURE: activation (%)

> print(dat)
                                        mol  units  numeric.readout
1  COc1ccc(CCNS(=O)(=O)c2ccc3c(c2)NC(=O)CS3)cc1OC      %           -0.024
2  Cc1ccc(S(=O)(=O)N(C)C[C@H]2Oc3ccc(N(C)C)cc3C(=O)N([C@@H](C)CO)C[C@@H]2C)cc1      %             9.64
3  CC(C)NC(=O)N(C)C[C@@H]1Oc2ccc(NC(=O)CCN3CCOCC3)cc2C(=O)N([C@@H](C)CO)C[C@H]1C      %            0.429
4  COc1ccc(C(=O)N(CCc2ccccc2)Cc2ccccc2)c(OC)n1      %           -0.136
5  C[C@H](CO)N1C[C@H](C)[C@@H](CN(C)Cc2ccc(Oc3ccccc3)cc2)Oc2ccc(NS(C)(=O)=O)cc2CC1=O      %            0.311
6  C[C@@H]1CN([C@@H](C)CO)C(=O)Cc2cc(NC(=O)Cc3cn(C)c4ccccc34)ccc2O[C@H]1CN(C)Cc1ccc(C(F)(F)F)cc1      %             1.99
7  CCOc1ccc(S(=O)(=O)N2CCC(C(=O)NCc3cccnc3)CC2)cc1      %           -0.239
8  C[C@@H]1CN([C@H](C)CO)C(=O)c2cc(NC(=O)Cn3cnnn3)ccc2O[C@@H]1CN(C)S(=O)(=O)c1ccccc1      %            0.017

---

Quick reference for activation among some molecules
PROCEDURE SUMMARY: endothelial E-selectin upregulation by compounds – imaging, HUVEC, cherry-picked samples, dose response (AID 977605);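 also: signal is the share of imaged cells scored positive for E-selectin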
CONDITION NOTES: HUVEC E-selectin immunostaining, at 19.5 µM (top of the series), percent of TNF-alpha response over vehicle
MEASURE: activation (%)

> print(dat)
                                    molecule  numeric.readout
 1  CNC[C@H]1Oc2ccc(NS(=O)(=O)c3ccc(OC)cc3)cc2CC(=O)N([C@@H](C)CO)C[C@@H]1C           -0.213
 2  CC(=O)NC(Cc1c[nH]c2ccccc12)C(=O)NCCc1ccccn1 (configuration not stated)            0.144
 3  C[C@H]1CN([C@@H](C)CO)C(=O)c2cccc(NC(=O)c3ccc(-c4nccs4)cc3)c2O[C@@H]1CN(C)Cc1ccc(Cl)c(Cl)c1             4.07
 4  C[C@H](CO)N1C[C@H](C)[C@H](CN(C)Cc2ccc(Cl)c(Cl)c2)Oc2c(NC(=O)CCCCCC(=O)Nc3ccccc3N)cccc2C1=O            0.173
 5  COc1ccc2sc(-c3ccccc3OC)c(-c3ccc(O)cc3)c2c1           -0.095
 6  COc1ccc(S(=O)(=O)Nc2ccc3c(c2)C(=O)N([C@H](C)CO)C[C@@H](C)[C@@H](CN(C)C(=O)Nc2cccc4ccccc24)O3)cc1              1.7
 7  C[C@@H]1CN([C@@H](C)CO)C(=O)Cc2cc(NC(=O)Nc3ccc(F)cc3)ccc2O[C@@H]1CN(C)Cc1ccc(C(=O)O)cc1           -0.134
 8  O=S(=O)(Nc1cccc(S(=O)(=O)N2CCCC2)c1)c1cccs1             2.79
 9  C[C@@H]1CN([C@H](C)CO)C(=O)c2cc(NC(=O)Nc3ccc4c(c3)OCO4)ccc2O[C@H]1CN(C)S(=O)(=O)c1ccc(F)cc1            -0.11
10  Cc1noc(C)c1S(=O)(=O)Nc1ccc2c(c1)CC(=O)N([C@H](C)CO)C[C@H](C)[C@@H](CN(C)C(=O)Nc1cccc3ccccc13)O2           -0.095
11  C[C@@H]1CN([C@@H](C)CO)C(=O)c2cc(NC(=O)NC3CCCCC3)ccc2O[C@@H]1CN(C)Cc1ccc2c(c1)OCO2           -0.021
12  Cc1ccc(S(=O)(=O)Nc2cc(-c3ccccc3)nn2C)cc1Cl           -0.007
13  CN(C)CCN1CCN(C2CN(Cc3cn(Cc4ccc(C(F)(F)F)cc4)nn3)S(=O)(=O)C2)CC1 (configuration not stated)             1.57
14  C[C@H](CO)N1C[C@H](C)[C@H](CN(C)Cc2ccc3c(c2)OCO3)Oc2ccc(NC(=O)Cc3cn(C)c4ccccc34)cc2C1=O             0.14
15  COc1ccc(NC(=O)N(C)C[C@@H]2Oc3ccc(NC(=O)c4ccncc4)cc3CC(=O)N([C@H](C)CO)C[C@@H]2C)cc1           -0.135
16  OC(COC(c1ccccc1)c1ccccc1)CN1CCOCC1 (configuration not stated)                2
17  Cc1noc(C)c1NC(=O)Nc1ccc2c(c1)CC(=O)N([C@@H](C)CO)C[C@H](C)[C@@H](CN(C)C(=O)Nc1ccc(F)cc1)O2            -0.02
18               N#Cc1cccnc1N1CCC(C(N)=O)CC1            0.067
19  COc1ccc(S(=O)(=O)N(C)C[C@H]2Oc3ccc(NC(=O)CCCN(C)C)cc3C(=O)N([C@@H](C)CO)C[C@@H]2C)cc1           -0.152
20  C[C@@H]1CN([C@@H](C)CO)C(=O)Cc2cc(NC(=O)Cn3cnnn3)ccc2O[C@H]1CN(C)C(=O)Nc1ccc(C(F)(F)F)cc1           -0.025
21  CCC(=O)c1ccc(OCC(=O)NNC(=O)c2cc(C)oc2C)cc1            -0.03
22  C[C@@H]1CN([C@H](C)CO)C(=O)c2cccc(NS(C)(=O)=O)c2O[C@@H]1CN(C)C(=O)Nc1cccc2ccccc12           -0.133
23  Cc1cc(NC(=O)CCC(=O)N(c2ccccc2)C(C(=O)NC2CCCC2)c2ccc(F)cc2)no1 (configuration not stated)            0.168
24  COc1ccc(NC(=O)N(C)C[C@@H]2Oc3c(NS(=O)(=O)c4cn(C)cn4)cccc3C(=O)N([C@@H](C)CO)C[C@H]2C)cc1           -0.199
25  CCC(=O)Oc1cccc(C(=O)Nc2cccc(NC(=O)c3ccco3)c2)c1           -0.083
26  COc1ccc(S(=O)(=O)N(C)C[C@H]2Oc3c(NC(=O)Nc4c(C)noc4C)cccc3C(=O)N([C@@H](C)CO)C[C@H]2C)cc1           -0.174
27  C[C@@H]1CN([C@H](C)CO)C(=O)c2cccc(NC(=O)Nc3ccc(C(F)(F)F)cc3)c2O[C@@H]1CN(C)S(=O)(=O)c1cccs1           -0.223
28       O=C(O)Cn1cc(C(=O)C(F)(F)F)c2ccccc21             0.43
29  CCn1c(SCC(=O)N(C)Cc2ccc(OC)c(F)c2)nc2cc(S(N)(=O)=O)ccc21           -0.113
30  COc1ccc(NC(=O)Nc2cccc3c2O[C@@H](CN(C)C(=O)NC2CCCCC2)[C@H](C)CN([C@H](C)CO)C3=O)cc1            0.507
31  C[C@@H]1CN([C@H](C)CO)C(=O)c2cccc(NS(=O)(=O)c3cccs3)c2O[C@H]1CN(C)Cc1ccc(Cl)c(Cl)c1           -0.024
32  Cc1noc(C)c1NC(=O)N(C)C[C@H]1Oc2ccc(NS(=O)(=O)c3c(C)noc3C)cc2C(=O)N([C@H](C)CO)C[C@@H]1C           -0.221

---

PROCEDURE SUMMARY: endothelial E-selectin upregulation by compounds – imaging, HUVEC, cherry-picked samples, dose response (AID 977605);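 also: signal is the share of imaged cells scored positive for E-selectin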
CONDITION NOTES: HUVEC E-selectin immunostaining, at 19.5 µM (top of the series), percent of TNF-alpha response over vehicle
Quick reference for activation among some compounds
MEASURE: activation (%)

> print(dat)
                                   compound  numeric.readout
1  C[C@@H]1CN([C@@H](C)CO)C(=O)c2cc(NS(=O)(=O)c3cccs3)ccc2O[C@H]1CN(C)C(=O)Nc1ccc2c(c1)OCO2           -0.287
2  Cc1cc(C(=O)Nc2cccc3c2O[C@H](CN(C)C(=O)NC2CCCCC2)[C@@H](C)CN([C@@H](C)CO)C3=O)n(C)n1           -0.268
3  COc1ccc(S(=O)(=O)N(C)C[C@H]2Oc3ccc(NC(=O)Nc4ccc5c(c4)OCO5)cc3CC(=O)N([C@H](C)CO)C[C@@H]2C)cc1            0.086
4  C[C@@H]1CCCCO[C@@H](CN(C)S(C)(=O)=O)[C@@H](C)CN([C@H](C)CO)C(=O)c2cc(NC(=O)CCCN(C)C)ccc2O1           -0.145
5  C[C@H]1CN([C@@H](C)CO)C(=O)c2cc(NC(=O)Nc3ccc4c(c3)OCO4)ccc2O[C@@H]1CN(C)S(=O)(=O)c1ccc(F)cc1           -0.105
6  COc1ccc(S(=O)(=O)Nc2ccc3c(c2)C(=O)N([C@H](C)CO)C[C@@H](C)[C@H](CN(C)Cc2ccc(Cl)c(Cl)c2)O3)cc1           -0.125
7  COc1cccc(NC(=O)C2C3C=CC4(O3)C2C(=O)N(CCCN2CCCCC2)C4C(=O)NC2CCCCC2)c1 (configuration not stated)             1.56
